# Read-out: 3-Hydroxy-3-Methylglutaryl-CoA Synthase 2 (HMGCS2), HMGCS2 (gene 3158)
# Assay: LTEA_HepaRG_HMGCS2: Life Technologies and Expression Analysis (LTEA) Assay for 3-Hydroxy-3-Methylglutaryl-CoA Synthase 2 (HMGCS2) using HepaRG (AID 2283504)
# Run parameters: mRNA level, 48 h; actives raise or lower the signal
Active and inactive are the calls of the source. How the source made its calls: active means hit-call score of the fitted dose curve at least 0.9, where 1 is the maximum; inactive means score below 0.9.
Outcome field: choose from 1.0 = active, 0.0 = inactive

A selection of reference data follows.
| Compound | Category |
| --- | --- |
| O=C(O)CC(O)C(=O)O (stereo unspecified) | 0.0 |
| Nc1nc2ncc(CNc3ccc(C(=O)N[C@@H](CCC(=O)O)C(=O)O)cc3)nc2c(=O)[nH]1 | 0.0 |

Data request: How did this test come out for COCCOCCOCCOC ?
Data returned: 0.0

Data request: How did this test come out for CCn1nc(Cc2ccccc2)cc1C1CCN(C[C@H]2C[C@H](N(C)[C@@H](C(=O)O)C(C)C)C[C@@H]2c2cccc(F)c2)CC1 ?
Data returned: 1.0

Data request: How did this test come out for CCCCC(CC)COC(=O)CCCCCCCCC(=O)OCC(CC)CCCC (stereo unspecified) ?
Data returned: 0.0

----------
# Read-out: Plasminogen activator inhibitor-1 (PAI1), SERPINE1 (gene 5054)
# Assay: BSK_BE3C_PAI1: BioMAP Diversity Plus: BE3C Assay for Plasminogen activator inhibitor-1 (PAI1) Biomarker Activity (AID 2283037)
# Run parameters: primary human bronchial epithelial cells; actives raise or lower the signal
Calls of active or inactive are those of the source. Rule for the calls: active = hit-call score of the fitted dose curve at least 0.9, where 1 is the maximum; inactive = score below 0.9.
Outcome field: choose from label 1 (active), label 0 (inactive)

A selection of reference data follows.
| Compound | Category |
| --- | --- |
| O=c1n(CC2CO2)c(=O)n(CC2CO2)c(=O)n1CC1CO1 (stereo unspecified) | label 0 |
| O=C(NS(=O)(=O)/C=C/c1ccccc1)c1ccc(F)cc1Cl | label 0 |
| CCOCCO | label 0 |
| CC(C)(O)c1coc(S(=O)(=O)NC(=O)Nc2c3c(cc4c2CCC4)CCC3)c1 | label 0 |
| CCCC(=O)OCC | label 0 |

Data request: How did this test come out for O=C(CCCCCCCCc1cccnc1)N1CCC(C=C(c2ccccc2)c2ccccc2)CC1 ?
Data returned: label 1

----------
# System name: human Caspase 5 (CASP5), CASP5 (gene 838) (UniProt P51878)
# Sequence (P51878 whole entry, looked up): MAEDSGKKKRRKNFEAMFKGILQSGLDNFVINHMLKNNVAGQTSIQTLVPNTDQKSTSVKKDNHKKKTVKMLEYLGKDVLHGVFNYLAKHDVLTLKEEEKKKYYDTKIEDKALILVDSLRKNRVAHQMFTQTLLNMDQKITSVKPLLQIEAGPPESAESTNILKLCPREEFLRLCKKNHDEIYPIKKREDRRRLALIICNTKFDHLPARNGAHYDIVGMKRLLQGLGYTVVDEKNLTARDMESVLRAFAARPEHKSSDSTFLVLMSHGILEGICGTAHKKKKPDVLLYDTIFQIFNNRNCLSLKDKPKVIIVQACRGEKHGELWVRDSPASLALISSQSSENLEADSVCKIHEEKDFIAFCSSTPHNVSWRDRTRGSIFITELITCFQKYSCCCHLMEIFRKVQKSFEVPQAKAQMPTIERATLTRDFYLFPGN
# Assay: NVS_ENZ_hCASP5: NovaScreen (NVS) Enzymatic Assay for human Caspase 5 (CASP5) (AID 2283137)
Records with an inconclusive call do not appear. Active and inactive are the calls of the source. Rule for the calls: active = hit-call score of the fitted dose curve at least 0.9, where 1 is the maximum; inconclusive = response in the unintended direction; inactive = score below 0.9.
Outcome field: choose from active, inactive

A selection of reference data follows.
| Molecule smiles | System name | Category |
| --- | --- | --- |
| Oc1ccc2c(c1)-c1ccccc1C2 | human Caspase 5 (CASP5), CASP5 (gene 838) (UniProt P51878) | active |
| CCOc1cccc(-n2cc(C(=O)N3CCN(c4cc(C(=O)O)c5ccccc5c4)CC3)nc2-c2ccc(C)cc2)c1 | human Caspase 5 (CASP5), CASP5 (gene 838) (UniProt P51878) | active |
| Nc1ccc(Nc2ccccc2)cc1 | human Caspase 5 (CASP5), CASP5 (gene 838) (UniProt P51878) | inactive |

From here, focus on the item given below.
Data request: How did this test come out for O=C(OC[C@H]1O[C@@H](OC(=O)c2cc(O)c(O)c(OC(=O)c3cc(O)c(O)c(O)c3)c2)[C@H](OC(=O)c2cc(O)c(O)c(OC(=O)c3cc(O)c(O)c(O)c3)c2)[C@@H](OC(=O)c2cc(O)c(O)c(OC(=O)c3cc(O)c(O)c(O)c3)c2)[C@@H]1OC(=O)c1cc(O)c(O)c(OC(=O)c2cc(O)c(O)c(O)c2)c1)c1cc(O)c(O)c(OC(=O)c2cc(O)c(O)c(O)c2)c1 ?
Data returned: active

----------
# Read-out: Nuclear factor NF-kappa-B p105 subunit (Homo sapiens)
# Assay: LTEA_HepaRG_NFKB1: Life Technologies and Expression Analysis (LTEA) Assay for Nuclear Factor Kappa B Subunit 1 (NFKB1) using HepaRG (AID 2283521);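 further: differentiated human HepaRG liver cells in serum-free induction medium; TaqMan qRT-PCR transcript normalised to ACTB GAPDH and POLR2A housekeeping genes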
# Run parameters: mRNA level, 48 h; actives raise or lower the signal
Active and inactive are the calls of the source. How the source made its calls: active means hit-call score of the fitted dose curve at least 0.9, where 1 is the maximum; inactive means score below 0.9.
Outcome field: choose from 1 (active), -1 (inactive)

A selection of reference data follows.
| Compound | Category |
| --- | --- |
| O=C1CCC(N2C(=O)c3ccccc3C2=O)C(=O)N1 (stereo not drawn) | -1 |
| C1=CCCC=CCCC=CCC1 | -1 |
| CC(C)CCCCCCCOC(=O)CCCCC(=O)OCCCCCCCC(C)C | -1 |
| COc1ccc(-n2nc(C(F)F)cc2-c2ccc(S(C)=O)cc2)cc1 (stereo not drawn) | -1 |
| CCOCCO | -1 |

Data request: How did this test come out for C[C@](N)(Cc1ccc(O)c(O)c1)C(=O)O ?
Data returned: -1

Data request: How did this test come out for CCn1nc(Cc2ccccc2)cc1C1CCN(C[C@H]2C[C@H](N(C)[C@@H](C(=O)O)C(C)C)C[C@@H]2c2cccc(F)c2)CC1 ?
Data returned: -1

Data request: How did this test come out for Clc1nc(Cl)c(Cl)c(Cl)c1Cl ?
Data returned: -1

Data request: How did this test come out for CCNc1ccccc1 ?
Data returned: -1

Data request: How did this test come out for O=C(O)CCN(C1(C(=O)NO)CCCC1)S(=O)(=O)c1ccc(Oc2ccc(F)cc2)cc1 ?
Data returned: -1

Data request: How did this test come out for COc1ccc(/C=C/S(=O)(=O)NC(=O)c2ccc(C)cc2Cl)cc1 ?
Data returned: -1

Data request: How did this test come out for CN(C)c1ccc(Cc2ccc(N(C)C)cc2)cc1 ?
Data returned: -1

Data request: How did this test come out for CCOc1cccc(-n2cc(C(=O)N3CCN(c4cc(C(=O)O)c5ccccc5c4)CC3)nc2-c2ccc(C)cc2)c1 ?
Data returned: -1

----------
# Read-out: Alpha-fetoprotein (AFP) gene, AFP (gene 174)
# Assay: LTEA_HepaRG_AFP: Life Technologies and Expression Analysis (LTEA) Assay for Alpha-fetoprotein (AFP) gene using HepaRG (AID 2283472)
# Run parameters: mRNA level, 48 h; actives raise or lower the signal
Activity calls are given as the source filed them. The calls were made as follows: active = hit-call score of the fitted dose curve at least 0.9, where 1 is the maximum; inactive = score below 0.9.
Outcome field: choose from label 1 = active, label 0 = inactive

A selection of reference data follows.
| Compound | Category |
| --- | --- |
| CCOc1cccc(-n2cc(C(=O)N3CCN(c4cc(C(=O)O)c5ccccc5c4)CC3)nc2-c2ccc(C)cc2)c1 | label 1 |
| O=C(OC[C@H]1O[C@@H](OC(=O)c2cc(O)c(O)c(OC(=O)c3cc(O)c(O)c(O)c3)c2)[C@H](OC(=O)c2cc(O)c(O)c(OC(=O)c3cc(O)c(O)c(O)c3)c2)[C@@H](OC(=O)c2cc(O)c(O)c(OC(=O)c3cc(O)c(O)c(O)c3)c2)[C@@H]1OC(=O)c1cc(O)c(O)c(OC(=O)c2cc(O)c(O)c(O)c2)c1)c1cc(O)c(O)c(OC(=O)c2cc(O)c(O)c(O)c2)c1 | label 1 |
| C[C@](N)(Cc1ccc(O)c(O)c1)C(=O)O | label 0 |

Data request: How did this test come out for On1ccccc1=S ?
Data returned: label 0

Data request: How did this test come out for CCCCCCc1ccc(O)cc1O ?
Data returned: label 0

Data request: How did this test come out for CNCc1ccc(NC(=O)c2c[nH]c3c2C(=O)CCC3)cc1 ?
Data returned: label 0

Data request: How did this test come out for CC(C)CCCCCCOC(=O)c1ccc(C(=O)OCCCCCCC(C)C)c(C(=O)OCCCCCCC(C)C)c1 ?
Data returned: label 0

Data request: How did this test come out for COc1cccc(-c2ccc(/C=C\CN3CCCCCC3)cc2Cl)c1 ?
Data returned: label 0

Data request: How did this test come out for O=C1OC(=O)C2C3C=CC(C3)C12 (stereo not given) ?
Data returned: label 0

Data request: How did this test come out for O=C1CCCCCN1 ?
Data returned: label 0

Data request: How did this test come out for CCOC(=O)CC(CC(=O)OCC)(OC(C)=O)C(=O)OCC ?
Data returned: label 0

----------
# Read-out: Nuclear factor NF-kappa-B p105 subunit (Homo sapiens)
# Assay: LTEA_HepaRG_NFKB1: Life Technologies and Expression Analysis (LTEA) Assay for Nuclear Factor Kappa B Subunit 1 (NFKB1) using HepaRG (AID 2283521);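 further: differentiated human HepaRG liver cells in serum-free induction medium; TaqMan qRT-PCR transcript normalised to ACTB GAPDH and POLR2A housekeeping genes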
# Run parameters: mRNA level, 48 h; actives raise or lower the signal
Calls of active or inactive are those of the source. How the source made its calls: active means hit-call score of the fitted dose curve at least 0.9, where 1 is the maximum; inactive means score below 0.9.

| Molecule smiles | outcome |
| --- | --- |
| On1ccccc1=S | inactive |
| Cc1ccc(O)cc1 | inactive |
| CC(C)c1cccc(C(C)C)c1N1C(=O)c2ccc(O)cc2C1=O | inactive |

----------
# Read-out: Interleukin-8 (IL8), CXCL8 (gene 3576)
# Assay: BSK_LPS_IL8: BioMAP Diversity Plus: LPS Assay for Interleukin-8 (IL8) Biomarker Activity (AID 2283078)
# Run parameters: primary human HUVEC with PBMC; actives raise or lower the signal
Activity calls are given as the source filed them. How the source made its calls: active means hit-call score of the fitted dose curve at least 0.9, where 1 is the maximum; inactive means score below 0.9.
Metric: AC50

Examples with their reported AC50 follow.
| Molecule smiles | AC50 |
| --- | --- |
| Cc1ccc(C)c(O)c1 | inactive |
| CC(=O)c1ccc2c(c1)[C@H](NC(=O)c1ccc(F)cc1)[C@@H](O)C(C)(C)O2 | inactive |
| On1ccccc1=S | inactive |
| CC(C)(O)c1coc(S(=O)(=O)NC(=O)Nc2c3c(cc4c2CCC4)CCC3)c1 | 0.148 µM (active) |
| CC(C)=CCCC(C)=CC=O | inactive |
| COCCOc1cc2cc(C(=O)NC3CCN(C(C)C)CC3)n(CC(=O)Nc3ccc(Cl)cn3)c2cn1 | inactive |
| COc1ccc2sc(C(=O)Nc3nnn[nH]3)c(OC(C)C)c2c1 | 28.5 µM (active) |
| CC1=CC(=O)CC(C)(C)C1 | inactive |
| C1=CCCC=CCCC=CCC1 | inactive |
| CC(C)=CCC/C(C)=C\CO | inactive |

Quick one: give me AC50 for each item below, same order please.
1. Nc1nc2ncc(CNc3ccc(C(=O)N[C@@H](CCC(=O)O)C(=O)O)cc3)nc2c(=O)[nH]1
2. COC(=O)CC(=O)OC
3. Cn1c(=O)cc(Oc2ccc(F)cc2F)c2cnc(NCC(C)(C)O)nc21

Data returned:
1: inactive; 2: inactive; 3: 2.9 µM (active)
